src = patent US11464770B2

# System: melanoma cell lines
# Assay summary: Cell based assay, cell viability (CellTiter-Glo), melanoma cell lines
# Condition context: Homo sapiens; LOX-IMVI cell line
This listing pairs compounds with measured IC50.

Compound | Relation symbol | IC50 (nM)
COc1cccc(C[S+]([O-])c2[nH]c3c(Br)ccc(Cl)c3c(=O)c2C(C)=O)c1 (centres unmarked) [Compound 55] | = | 1620
CC(=O)c1c([S+]([O-])c2ccc(Br)cc2)[nH]c2c(Br)ccc(Cl)c2c1=O (centres unmarked) [Compound 17] | > | 2000
CC(=O)c1c([S+]([O-])Cc2ccc([S+]([O-])C(F)(F)F)cc2)[nH]c2c(Br)ccc(Cl)c2c1=O (centres unmarked) [Compound 64] | = | 1050
CC(=O)c1c([S+]([O-])Cc2ccc(F)cc2F)[nH]c2c(Br)ccc(Cl)c2c1=O (centres unmarked) [Compound 29] | = | 1240
CC(=O)c1c([S+]([O-])C(C)c2ccccc2)[nH]c2c(Br)ccc(Cl)c2c1=O (centres unmarked) [Compound 26] | > | 2000
CC(=O)c1c(SCc2cc(Cl)ccc2Cl)[nH]c2c(Br)ccc(Cl)c2c1=O [Compound 43] | > | 2000
Cc1cc(C[S+]([O-])c2[nH]c3c(Br)ccc(Cl)c3c(=O)c2C(=O)C2CC2)no1 (centres unmarked) [Compound 96] | > | 2000
CC(=O)c1c([S+]([O-])Cc2ccc(S(F)(F)(F)(F)F)cc2F)[nH]c2c(Br)ccc(Cl)c2c1=O (centres unmarked) [Compound 69] | = | 1120
